Reported Potency (%) compared to GLP-1-G^2, cAMP production values for the following binders.
Molecular target: T1, mouse GLP-1 receptor endogenously expressed in βTC6 cells (mouse, UniProt O35659 22-463)
T1 sequence (looked up): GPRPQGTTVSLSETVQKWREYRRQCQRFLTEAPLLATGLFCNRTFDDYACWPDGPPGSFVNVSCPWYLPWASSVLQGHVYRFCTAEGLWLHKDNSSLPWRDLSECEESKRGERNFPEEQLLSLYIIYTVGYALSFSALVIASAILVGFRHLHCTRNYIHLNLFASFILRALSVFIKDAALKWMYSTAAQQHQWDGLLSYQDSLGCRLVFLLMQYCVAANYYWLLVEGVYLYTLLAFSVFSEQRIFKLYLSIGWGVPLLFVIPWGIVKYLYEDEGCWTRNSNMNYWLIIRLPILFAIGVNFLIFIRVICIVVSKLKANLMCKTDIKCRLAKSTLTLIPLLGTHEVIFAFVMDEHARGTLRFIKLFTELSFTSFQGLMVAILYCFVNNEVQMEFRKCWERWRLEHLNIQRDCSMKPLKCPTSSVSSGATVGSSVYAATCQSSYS
Assay: cell-based or functional assay
Numbered stars: 1 amine (or outer) side, 2 acyl side, 3 side chain; on linkers, the order of the positions; unused ones are H or OH. Square brackets hold non-standard residues; d marks the D form. Ends that are not written are not given here. A^u = urea/ureido (oligourea) residue with alanine side chain, C[C@@H](CNC(=O)[*:2])N[*:1]; Au = A^u, ureido (oligourea) alanine residue, C[C@@H](CNC(=O)[*:2])N[*:1]; D^uα = urea/ureido residue with aspartic acid side chain; E^u = urea/ureido residue with glutamic acid side chain; Y^u = urea/ureido residue with tyrosine side chain
MEASURED_QUANTITY: Potency (%) compared to GLP-1-G^2, cAMP production

BINDER | RESULT
HGEGTFTSDVSS[Au][Au][Au]QAAKEFIAWLVKGRG-NH2 (also: oligourea (urea) backbone at A^u units) [GG2[A^UA^UA^U]^13-16] | < 0.01%
HGEGTFTSDV[Au][Au][Au]EGQAAKEFIAWLVKGRG-NH2 (also: oligourea (urea) backbone at A^u units) [GG2[A^UA^UA^U]^11-14] | 0.2%
HGEGTFTSDVSSYLEGQAAKEFIXXXKGRG (ureido (oligourea) residues A^u A^u A^u at positions 24-26 of the hybrid, replacing residues 24-27 of GLP-1-G2; C-terminal amide) [GG2[A^UA^UA^U]^24-27] | < 0.01%
HGEGTFTSDV[A^u][Y^u][A^u]EGQAAKEFIAWLVKGRG-NH2 [GG2[A^UY^UA^U]^11-14] | 15%
HGEGTFTSDVSSYL[E^u][A^u][A^u]AKEFIAWLVKGRG-NH2 [GG2[E^UA^UA^U]^15-18] | 13%
H-HGEGTFTSDVSSYL[Au][Au][Au]AKEFIAWLVKGRG-NH2 (also: oligourea (urea) backbone at A^u units) [GG2[A^UA^UA^U]^15-18] | 0.2%
HGEGTFTSDVSSY[Y^u][E^u][A^u][A^u][A^u][A^u]FIAWLVKGRG-NH2 [GG2[Y^uE^uA^uA^uA^uA^u]^14-21] | 7%
HGEGTFTS[D^uα][A^u][A^u]YLEGQAAKEFIAWLVKGRG-NH2 [GG2[D^UαA^UA^U]^9-12] | 2%
HGEGTFTSDVSSYLEGQAAKEXXXLVKGRG (ureido (oligourea) residues F^uα I^u A^u at positions 22-24 of the hybrid, replacing residues 22-25 of GLP-1-G2; C-terminal amide) [GG2[F^UαI^UA^U]^22-25] | 0.4%
HGEGTFTSDVSSYLEGQ[A^u][A^u][A^u]FIAWLVKGRG-NH2 [GG2[A^UA^UA^U]^18-21] | 6%
HGEGTFTSDVSSY[Y^u][E^u][A^u]AAKEFIAWLVKGRG-NH2 [GG2[Y^UE^UA^U]^14-17] | 135%
